- Tested on: CHP-212 neuroblastoma cell line
- Procedure details: Cell line sensitivity (Cell Titer Glo), CHP-212
- Format: cell-based
- Settings: CHP-212 cells, 72 h, Cell Titer Glo, inflection point, 0.0025 to 8 uM; read-out: COMPOUND I EC50
Reported endpoint: pEC50
API: returns pEC50 as number; meaning -log10 of concentration in mol/L.

QUERY: Given the entry Cc1nc(NC(=O)N2CCC[C@H]2C(N)=O)sc1-c1ccnc(C(C)(C)C(F)(F)F)c1 [COMPOUND I] , report its measured pEC50.
RESULT: 6.10

###

- System: TC-71 Ewing's Sarcoma cell line
- Procedure details: Cell line sensitivity (Cell Titer Glo), TC-71
- Format: cell-based
- Settings: read-out: COMPOUND I EC50; TC-71 cells, 72 h, Cell Titer Glo, inflection point, 0.0025 to 8 uM; heading: COMPOUND I EC50
Reported endpoint: EC50

QUERY: Given the entry Cc1nc(NC(=O)N2CCC[C@H]2C(N)=O)sc1-c1ccnc(C(C)(C)C(F)(F)F)c1 [COMPOUND I] , report its measured EC50.
RESULT: > 8 µM

###

- Test system: SK-N-SH neuroblastoma cell line
- Procedure details: Cell line sensitivity (Cell Titer Glo), SK-N-SH
- Type: cell-based
- Settings: SK-N-SH cells, 72 h, Cell Titer Glo, inflection point, 0.0025 to 8 uM; read-out: COMPOUND I EC50
Reported endpoint: EC50 (µM)
Give a bare numeral; the unit µM is implied.

QUERY: Given the entry Cc1nc(NC(=O)N2CCC[C@H]2C(N)=O)sc1-c1ccnc(C(C)(C)C(F)(F)F)c1 [COMPOUND I] , report its measured EC50.
RESULT: 1.6
